This collection of values is drawn from ChEMBL document CHEMBL1649159.

Experiment: Drug activation in metronidazole-resistant Helicobacter pylori 10593a/2 lysate
Listed here: items and their measured Km.
Kindly answer with a numeric value in µM, unit omitted.

NC(=O)N/N=C/c1ccc([N+](=O)[O-])o1 : 6

Kindly consider the entry below.
### Prompt Need Km of Cc1cc2nc3c(=O)[nH]c(=O)nc-3n(C[C@H](O)[C@H](O)[C@H](O)COP(=O)(O)OP(=O)(O)OC[C@H]3O[C@@H](n4cnc5c(N)ncnc54)[C@H](O)[C@@H]3O)c2cc1C [FLAVIN ADENIN DINUCLEOTIDE] , thanks.
### Response 5

* * *

Assay: Drug activation in metronidazole-resistant Helicobacter pylori CAS 015 J56 lysate harboring rdxA L132stop and frxA L39stop mutant genes
Assay type: organism-based
reportedEndpoint: Km (µM)
Give the quantity in µM, number only.

Cc1cc2nc3c(=O)[nH]c(=O)nc-3n(C[C@H](O)[C@H](O)[C@H](O)COP(=O)(O)OP(=O)(O)OC[C@H]3O[C@@H](n4cnc5c(N)ncnc54)[C@H](O)[C@@H]3O)c2cc1C [FLAVIN ADENIN DINUCLEOTIDE] : 24

### Prompt Dear colleague, I am looking for the recorded Km of the following compound: NC(=O)N/N=C/c1ccc([N+](=O)[O-])o1
### Response 3.3
